src = patent US20080207449A1

# Test system: T1, pGBTE2Fb-Rb: GAL4 DNA-binding domain fusion of AtE2Fb amino acids 1-385 (lacking the Rb-binding domain) (Arabidopsis)
# T1 construct: also called E2F3 N-terminal; E2Fb (=E2F3) N-terminal domain
# Measurement description: yeast two-hybrid, growth on His- minimal medium; legend: +, positive interaction
Property name: binding result

INSERT INTO assay_data (binder, result_value) VALUES
  ('GAL4 transactivation domain fusion of AtDPb 1-385 (prey in pAD-GAL424) (other, not shown: large carriers, also called full-length AtDPb prey) MTTTGSNSNHNHHESNNNNNNPSTRSWGTAVSGQSVSTSGSMGSPSSRSEQTITVVTSTSDTTFQRLNNLDIQGDDAGSQGASGVKKKKRGQRAAGPDKTGRGLRQFSMKVCEKVESKGRTTYNEVADELVAEFALPNNDGTSPDQQQYDEKNIRRRVYDALNVLMAMDIISKDKKEIQWRGLPRTSLSDIEELKNERLSLRNRIEKKTAYSQELEEQYVGLQNLIQRNEHLYSSGNAPSGGVALPFILVQTRPHATVEVEISEDMQLVHFDFNSTPFELHDDNFVLKTMKFCDQPPQQPNGRNNSQLVCHNFTPENPNKGPSTGPTPQLDMYETHLQSQQHQQHSQLQIIPMPETNNVTSSADTAPVKSPSLPGIMNSSMKPEN', 'binds'),
  ('GAL4 transactivation domain fusion of AtDPb 182-263 (prey in pAD-GAL424) (other, not shown: large carriers) GLPRTSLSDIEELKNERLSLRNRIEKKTAYSQELEEQYVGLQNLIQRNEHLYSSGNAPSGGVALPFILVQTRPHATVEVEI', 'binds'),
  ('GAL4 transactivation domain fusion of AtDPa 1-292 (prey in pAD-GAL424) (other, not shown: large carriers, also called full-length AtDPa prey) MSMEMELFVTPEKQRQHPSVSVEKTPVRRKLIVDDDSEIGSEKKGQSRTSGGGLRQFSVMVCQKLEAKKITTYKEVADEIISDFATIKQNAEKPLNENEYNEKNIRRRVYDALNVFMALDIIARDKKEIRWKGLPITCKKDVEEVKMDRNKVMSSVQKKAAFLKELREKVSSLESLMSRNQEMVVKTQGPAEGFTLPFILLETNPHAVVEIEISEDMQLVHLDFNSTPFSVHDDAYILKLMQEQKQEQNRVSSSSSTHHQSQHSSAHSSSSSCIASGTSGPVCWNSGSIDTR', 'binds');
